Would you mind telling me the reported biofilm OD600 of each entry?
# Test system: Candida albicans SNY425 biofilm
# test_details: biofilm OD600 relative to DMSO control (fraction of DMSO control); higher = more biofilm (less inhibition)
# condition_details: 40 µM; assay detail: sustained inhibition, 384-well, compound during adherence and 24 h growth
Where a name gives a salt, the structure may show the parent alone.

Prompt line: For the molecule N[C@H](Cc1ccccc1)C(=O)O , what biofilm OD600 is on record?
Response line: 0.994

Prompt line: Lookup O=C(O)c1cccnc1
Response line: 0.967

Prompt line: Lookup CCCCCCCCCCCCCCCCOP(=O)([O-])OCC[N+](C)(C)C
Response line: 0.222

Prompt line: Lookup O=C([O-])C(O)[C@H](O)[C@@H](O)[C@H](O)[C@H](O)CO.O=C([O-])C(O)[C@H](O)[C@@H](O)[C@H](O)[C@H](O)CO.[Ca+2] (some centres not stated) [calcium gluceptate]
Response line: 0.955

Prompt line: Lookup Cc1cnc(C(=O)O)c[n+]1[O-]
Response line: 0.992

Prompt line: Lookup CC[C@H]1OC(=O)[C@H](C)[C@@H](O[C@H]2C[C@@](C)(OC)[C@@H](O)[C@H](C)O2)[C@H](C)[C@@H](O[C@@H]2O[C@H](C)C[C@H](N(C)C)[C@H]2O)[C@](C)(O)C[C@@H](C)C(=O)[C@H](C)[C@@H](O)[C@]1(C)O
Response line: 1.03

Prompt line: Lookup Cc1c(NC(=O)c2cccnc2)c(=O)n(-c2ccccc2)n1C
Response line: 0.968

Prompt line: Lookup CN(C)CCC(c1ccc(Cl)cc1)c1ccccn1 (configuration not stated) [chlorpheniramine maleate]
Response line: 1.01

Prompt line: Lookup CNCCCC1c2ccccc2C=Cc2ccccc21 [Protriptyline hydrochloride]
Response line: 1.02

Prompt line: Lookup Cc1ccc(-c2nc3ccc(C)cn3c2CC(=O)N(C)C)cc1
Response line: 0.981

Prompt line: Lookup N[C@@H](Cc1cc(I)c(Oc2ccc(O)c(I)c2)c(I)c1)C(=O)O [liothyronine sodium]
Response line: 0.96

Prompt line: Lookup Oc1ncnc2[nH]ncc12
Response line: 0.982

Prompt line: Lookup Clc1ccc(C(Cn2ccnc2)OCc2ccsc2Cl)c(Cl)c1 (configuration not stated)
Response line: 0.473

Prompt line: Lookup COc1ccc(-c2cc(=O)c3c(O)cc(O[C@@H]4O[C@H](CO[C@@H]5O[C@@H](C)[C@H](O)[C@@H](O)[C@H]5O)[C@@H](O)[C@H](O)[C@H]4O)cc3o2)cc1O
Response line: 1.07

Prompt line: Lookup Cn1c(=O)c2c(ncn2CC(O)CO)n(C)c1=O (configuration not stated)
Response line: 1.02

Prompt line: Lookup COCCOC(=O)C1=C(C)NC(C)=C(C(=O)OC(C)C)C1c1cccc([N+](=O)[O-])c1 (configuration not stated)
Response line: 0.984

Prompt line: Lookup C[C@]12C=CC(=O)C=C1CC[C@H]1[C@@H]3C[C@@H](O)[C@](O)(C(=O)CO)[C@@]3(C)C[C@H](O)[C@@]12F
Response line: 1
